# target-entity: T1, recombinant human Pro-Factor D (human, UniProt P00746 20-253)
# T1 construct: also used for the endogenous pro-Factor D detected in 3MC patient serum; also called pro CFD; hPro-CFD
# test-summary: ELISA: antibody titrated 3-fold from 3 ug/ml on plate coated with 1 ug/ml recombinant human pro-Factor D; HRP anti-mouse, rat or human secondary; OD450
reported-endpoint: EC50 (read off the curve)

// below: answered binders
* 2A4, purified recombinant, human IgG4 (antibody, V domains shown, Mouse variable regions on human IgG4 (S228P) and human kappa constant regions) VH: EVKLEESGGGLVQPGGSMKLSCVASGFTFSTYWMSWVRQSPEKGLEWVAEIRLKSDNYATHYTESVKGKFTISRDDSKSRLYLQMNSLRVEDTGIYYCTNAWFAYWGQGTLVTVSA VL: DIVMSQSPSSLAVSVGEKFTMSCKSSQSLLYSRDQKNYLAWYQQQPGQSPKLLIYWASTRESGVPDRFTGSGSGTDFTLTISSVKTEDLAVYYCLQYYSYPYTFGGGTKLEIKR | ~0.03 µg/mL
* 18F5, purified recombinant, human IgG4 (antibody, V domains shown, Mouse variable regions on human IgG4 (S228P) and human kappa constant regions) VH: EVKLEESGGGLVQPGGSMKLSCVASGFTFGNYWMSWVRQSPEKGLEWVAEIRLKSDNYATHYAESVKGKFTISRDDSKSRLYLQMNSLRGEDTGLYYCTNAWFASWGQGTLVTVSA VL: DIVMSQSPSSLAVSVGEKVTMSCMSSQSLLYSKDQKNYLAWYQQKPGQSPKLLIYWASTRESGVPDRFTGSGSGTDFTLTISSVKAEDLAVYYCLQYYTYPYTFGGGTKLEIKR | ~0.03 µg/mL
* 13A10, purified recombinant, human IgG4 (antibody, V domains shown, Mouse variable regions on human IgG4 (S228P) and human kappa constant regions) VH: DVQLQESGPGLVKPSQSLSLTCTVTGYSITSDYAWNWIRQFPGNKLEWMGYISYIGGIGYNPSLKSRISITRDTSKNQFFLHLNSVTTGDTATYYCARNGAMDFWGQGISVTVSS VL: DIVLTQSPASLAVSLGQRATISCKASQSVDYDGDSYMNWYQQKPGQPPKLLIYDASNLESGIPARFSGSGSGTDFTLNIHPVEEEDAATYYCQQSNEAPWTFGGGTKLEIKR | ~0.02 µg/mL

Recorded EC50 (read off the curve) (binder 21H1, purified recombinant, human IgG4 Fc (antibody, V domains shown, Mouse variable regions on human IgG4 (S228P) and human kappa constant regions; also called mAb 21H1; anti-pro Factor D-specific antibody 21H1) VH: DVQLQESGPGLVKPSQSLSLTCTVTGYSITSDYAWNWIRQFPGNKLEWMGYISYSGSTGYSPSLKSRISITRDTSKNQFFLHLNSVTTGDTATYYCARNGAMDYWGQGISVTVSS VL: DIVLTQSPASLAVSLGQRATISCKASQSVDYDGDSYMNWYQQKPGQPPKLLIYDASTLESGIPARFSGSGSGTDFTLNIHPVEEEDAATYYCQQNYEAPWTFGGGTKLEIKR ): ~0.02 µg/mL
